Attribution: paper PMC5349851

Please respond with reported binding signal for every item in the list.
Target desc: ATF4;CEBPG (Homo sapiens;Homo sapiens, UniProt P18848;P53567 269-346;52-130, |)
Sequence (P18848 other isoform, or with tags, fused parts or gaps |): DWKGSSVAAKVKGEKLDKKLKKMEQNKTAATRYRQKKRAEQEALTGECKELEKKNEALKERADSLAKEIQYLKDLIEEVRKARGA
Protocol description: SELEX-seq (CSI, HT-SELEX, round 3); SELEX-seq: 1x PBS (10 mM phosphate, 137 mM NaCl, 2.7 mM KCl) pH 7.6, 2.5 mM DTT, 50 ng/ul poly dI-dC, 0.1% BSA, 50 nM biotinylated bZIP (1:3 with partner for heterodimers), 100 nM library, room temperature, 1 h, 3 rounds; high values mean tight binding
Run parameters: protein: recombinant;recombinant; copies: 1;1; dsDNA, one strand shown

Solved cases (3 shown):
Look up binding signal for this sequence: "ATGACGGAAT" 0.0162 relative CSI intensity (max = 1)

Look up binding signal for this sequence: "CCTGACGTCA" 0.0346 relative CSI intensity (max = 1)

I have this sequence here, "ATGACGTCAT" , and I need its recorded binding signal. 0.465 relative CSI intensity (max = 1)

Please state, for each entry, its recorded binding signal.
1. ATGACGTAAT
2. ATGACGCAAT
3. ATGATGCAAT

1: 0.652 relative CSI intensity (max = 1); 2: 1 relative CSI intensity (max = 1); 3: 0.965 relative CSI intensity (max = 1)

###

Target desc: JUNB;DBP (Homo sapiens;Homo sapiens, UniProt P17275;Q10586 259-332;246-324, |)
Sequence 1: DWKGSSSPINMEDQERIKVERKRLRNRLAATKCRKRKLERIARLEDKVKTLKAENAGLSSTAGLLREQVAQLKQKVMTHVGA
Sequence 2: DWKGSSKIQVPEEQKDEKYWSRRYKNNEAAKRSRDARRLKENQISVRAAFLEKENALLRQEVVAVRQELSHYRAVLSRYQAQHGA
Protocol description: SELEX-seq (CSI, HT-SELEX, round 3); SELEX-seq: 1x PBS (10 mM phosphate, 137 mM NaCl, 2.7 mM KCl) pH 7.6, 2.5 mM DTT, 50 ng/ul poly dI-dC, 0.1% BSA, 50 nM biotinylated bZIP (1:3 with partner for heterodimers), 100 nM library, room temperature, 1 h, 3 rounds; high values mean tight binding
Run parameters: protein: recombinant;recombinant; copies: 1;1; dsDNA, one strand shown
Would you kindly list binding signal for each of these sequences?

Record excerpt, results attached:
For the sequence shown here, "ATGACGTCAT" , give the reported binding signal. 1 relative CSI intensity (max = 1)

What does the data say about its binding signal? Entry: "ATGACGCAAT" 0.162 relative CSI intensity (max = 1)

Reported binding signal, sequence "CCTGACGTCA" : ____ 0.0067 relative CSI intensity (max = 1)

Now take the following sequence into account.
Quick check: binding signal of "ATGACGTAAT" ? 0.727 relative CSI intensity (max = 1)

###

Target desc: JUNB;CEBPG (Homo sapiens;Homo sapiens, UniProt P17275;P53567 259-332;52-130, |)
Sequence 1: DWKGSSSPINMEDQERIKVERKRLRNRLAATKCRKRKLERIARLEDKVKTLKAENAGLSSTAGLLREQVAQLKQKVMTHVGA
Sequence 2: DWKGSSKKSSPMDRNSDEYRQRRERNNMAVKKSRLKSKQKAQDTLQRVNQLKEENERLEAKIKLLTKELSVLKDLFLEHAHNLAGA
Protocol description: SELEX-seq (CSI, HT-SELEX, round 3); SELEX-seq: 1x PBS (10 mM phosphate, 137 mM NaCl, 2.7 mM KCl) pH 7.6, 2.5 mM DTT, 50 ng/ul poly dI-dC, 0.1% BSA, 50 nM biotinylated bZIP (1:3 with partner for heterodimers), 100 nM library, room temperature, 1 h, 3 rounds; high values mean tight binding
Run parameters: protein: recombinant;recombinant; copies: 1;1; dsDNA, one strand shown
Value type: binding signal

See these solved cases before continuing.
Which measured binding signal value corresponds to "ATGACGTAAT" ? 0.17 relative CSI intensity (max = 1)

Tell me the measured binding signal of "ATGACGCAAT" , please. 0.308 relative CSI intensity (max = 1)

What does the record list as binding signal for "ATGATGCAAT" ? 0.252 relative CSI intensity (max = 1)

Next sequence, please.
Reported binding signal for "CCTGACGTCA" : what is it? 0.00362 relative CSI intensity (max = 1)
